# Measurement protocol: Cell viability assay
# Assay type: cell-based, murine
# Condition: mouse, RAW 264.7 macrophage cells
Readout label: viability at 50 µM

O=C(CSC1=N/C(=C\c2ccc(Cl)cc2)C(=O)N1c1ccccc1)Nc1ccc(F)cc1 [Compound 4k]	83 to 105%
O=C(CSC1=N/C(=C\c2ccc(Cl)cc2)C(=O)N1c1ccccc1)Nc1ccc(Cl)cc1 [Compound 4l]	83 to 105%

In plain terms, COc1ccc(NC(=O)CSC2=N/C(=C\c3ccccc3)C(=O)N2c2ccccc2)cc1 [Compound 4f] has a documented viability at 50 µM of 83 to 105%

###

Exercise: state measured IC50 for each of the molecules provided.
# Measurement target: human recombinant COX-2 (Homo sapiens)
# Measurement protocol: In vitro COX-2 inhibitory assay
# Assay type: biochemical
Give bare numbers, in nM.

Some molecules with recorded IC50:
O=C(CSC1=N/C(=C\c2ccc(Cl)cc2)C(=O)N1c1ccccc1)Nc1ccccc1 [Compound 4j]	130
O=C(CSC1=N/C(=C\c2ccc(Cl)cc2)C(=O)N1c1ccccc1)Nc1ccc(Cl)cc1 [Compound 4l]	80

Count: 4. Required value per item: IC50.
1. COc1cc(NC(=O)CSC2=N/C(=C\c3ccc(Cl)cc3)C(=O)N2c2ccccc2)cc(OC)c1OC [Compound 4p]
2. O=C(CSC1=N/C(=C\c2ccccc2)C(=O)N1c1ccccc1)Nc1cccc(C(F)(F)F)c1 [Compound 4h]
3. O=C(CSC1=N/C(=C\c2ccc(Cl)cc2)C(=O)N1c1ccccc1)Nc1ccc(F)cc1 [Compound 4k]
4. O=C(CSC1=N/C(=C\c2ccc(Cl)cc2)C(=O)N1c1ccccc1)Nc1cccc(C(F)(F)F)c1 [Compound 4q]

Result:
[80, 280, 70, 90]

###

Exercise: state measured IC50 for each of the compounds provided.
# Measurement target: human recombinant COX-2 (Homo sapiens, UniProt P35354)
# Sequence (P35354 18-604): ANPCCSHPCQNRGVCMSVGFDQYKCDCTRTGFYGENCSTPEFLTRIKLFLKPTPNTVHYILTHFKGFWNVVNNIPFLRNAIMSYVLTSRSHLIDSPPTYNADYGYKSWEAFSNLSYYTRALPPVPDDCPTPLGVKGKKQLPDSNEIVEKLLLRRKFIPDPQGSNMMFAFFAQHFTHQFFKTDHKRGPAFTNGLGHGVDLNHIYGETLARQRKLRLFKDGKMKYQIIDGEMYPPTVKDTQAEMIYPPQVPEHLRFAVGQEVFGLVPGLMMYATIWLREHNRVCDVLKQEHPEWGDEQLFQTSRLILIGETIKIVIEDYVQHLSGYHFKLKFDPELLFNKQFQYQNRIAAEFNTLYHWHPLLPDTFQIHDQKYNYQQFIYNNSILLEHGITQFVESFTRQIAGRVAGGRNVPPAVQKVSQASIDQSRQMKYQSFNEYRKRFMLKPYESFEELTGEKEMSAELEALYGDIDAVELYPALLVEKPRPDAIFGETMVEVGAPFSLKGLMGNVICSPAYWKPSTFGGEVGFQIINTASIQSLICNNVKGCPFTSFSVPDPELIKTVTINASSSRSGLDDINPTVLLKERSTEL
# Measurement protocol: In vitro COX-2 inhibitory assay
# Format: biochemical
# Condition: read-out: COX2, IC50

Some compounds with recorded IC50:
O=C(CSC1=N/C(=C\c2ccccc2)C(=O)N1c1ccccc1)Nc1ccc(Br)cc1 [Compound 4d]	0.13 µM
O=C(CSC1=N/C(=C\c2ccccc2)C(=O)N1c1ccccc1)Nc1ccc(F)cc1 [Compound 4b]	0.13 µM
Cc1ccc(NC(=O)CSC2=N/C(=C\c3ccccc3)C(=O)N2c2ccccc2)cc1 [Compound 4e]	0.1 µM
COc1cc(NC(=O)CSC2=N/C(=C\c3ccccc3)C(=O)N2c2ccccc2)cc(OC)c1OC [Compound 4g]	0.14 µM

Turning now to a further compound:
In plain terms, O=C(CSC1=N/C(=C\c2ccccc2)C(=O)N1c1ccccc1)Nc1ccc(Cl)cc1 [Compound 4c] has a documented IC50 of 0.14 µM

###

Exercise: state measured TNF-α level for each of the compounds provided.
# System: LPS-induced TNF-α production in RAW 264.7 cells
# Condition: cells treated with 25 μM compound, LPS-activated RAW 264.7
Numbers only, in pg/mL.

Some compounds with recorded TNF-α level:
O=C(CSC1=N/C(=C\c2ccccc2)C(=O)N1c1ccccc1)Nc1ccc(Cl)cc1 [Compound 4c]	49.81
O=C(CSC1=N/C(=C\c2ccc(Cl)cc2)C(=O)N1c1ccccc1)Nc1ccc(F)cc1 [Compound 4k]	28.29
COc1ccc(NC(=O)CSC2=N/C(=C\c3ccc(Cl)cc3)C(=O)N2c2ccccc2)cc1 [Compound 4o]	29.10
O=C(CSC1=N/C(=C\c2ccc(Cl)cc2)C(=O)N1c1ccccc1)Nc1ccc(Cl)cc1 [Compound 4l]	26.47
O=C(CSC1=N/C(=C\c2ccccc2)C(=O)N1c1ccccc1)NCc1ccccc1 [Compound 4i]	46.98

Count: 2. Required value per item: TNF-α level.
1. COc1cc(NC(=O)CSC2=N/C(=C\c3ccc(Cl)cc3)C(=O)N2c2ccccc2)cc(OC)c1OC [Compound 4p]
2. O=C(CSC1=N/C(=C\c2ccc(Cl)cc2)C(=O)N1c1ccccc1)NCc1ccccc1 [Compound 4r]

Result:
31.42
21.02
